- TARGET ENTITY: HLA-A*02:01 (Homo sapiens, UniProt P04439, D140Y/D185E/D98H/E176V/E277Q/G131W/G231S/I119V/I121R/I166T/I218V/L300P/L318F/N151K/N90K/P208A/P217A/Q86G/Q94H/R138H/R169H/T345S)
- EXPERIMENT: MHC binding assay (UV-ligand exchange, beta2m ELISA, peptide exchange yield)
- STUDY CONDITIONS: MHC class I binding score; binding to HLA-A*02:01 ranged by peptide exchange yield (UV-ligand exchange, β2m ELISA)
MEASURED ENDPOINT: Peptide exchange

1) 189 (AISEVIGKITA; listed as Homo sapiens) [compound 189] | ″+++″ (≥50 = +++)
2) 137 (QLTEIKPLL; listed as Homo sapiens) [compound 137] | ″+++″ (≥50 = +++)
3) 53 (FLLGSEIKL; listed as Homo sapiens) [compound 53] | ″+++″ (≥50 = +++)
4) 87 (LLFDAPDLRL; listed as Homo sapiens) [compound 87] | ″+++″ (≥50 = +++)
5) 141 (AVIEHLERL; listed as Homo sapiens) [compound 141] | ″++++″ (≥75% = ++++)
6) 56 (VLFTDEGVPKFL; listed as Homo sapiens) [compound 56] | ″++″ (≥20% = ++)
7) 175 (TLLGGKEAQALGV; listed as Homo sapiens) [compound 175] | ″+++″ (≥50 = +++)
8) 18 (FLSSLKGGLL; listed as Homo sapiens) [compound 18] | ″+++″ (≥50 = +++)
9) 165 (RLLDFPEAMVL; listed as Homo sapiens) [compound 165] | ″++++″ (≥75% = ++++)
10) 173 (KLGDLMVLL; listed as Homo sapiens) [compound 173] | ″+++″ (≥50 = +++)
11) 116 (LVYQFVHPI; listed as Homo sapiens) [compound 116] | ″++″ (≥20% = ++)
12) 105 (YALDLSTFL; listed as Homo sapiens) [compound 105] | ″+++″ (≥50 = +++)
13) 190 (AMAEMVLQV; listed as Homo sapiens) [compound 190] | ″+++″ (≥50 = +++)
14) 24 (VLDGVLMEL; listed as Homo sapiens) [compound 24] | ″+++″ (≥50 = +++)
15) 33 (ALWEKNTHL; listed as Homo sapiens) [compound 33] | ″+++″ (≥50 = +++)
16) 132 (ALLNAILHSA; listed as Homo sapiens) [compound 132] | ″++″ (≥20% = ++)
17) 172 (LLLDTVTMQV; listed as Homo sapiens) [compound 172] | ″+++″ (≥50 = +++)
18) 70 (MISELEVRL; listed as Homo sapiens) [compound 70] | ″+++″ (≥50 = +++)
19) 146 (ALSDETWGL; listed as Homo sapiens) [compound 146] | ″++″ (≥20% = ++)

====

- TARGET ENTITY: HLA-A*02:01 (Homo sapiens, UniProt P04439, D140Y/D185E/D98H/E176V/E277Q/G131W/G231S/I119V/I121R/I166T/I218V/L300P/L318F/N151K/N90K/P208A/P217A/Q86G/Q94H/R138H/R169H/T345S)
- EXPERIMENT: MHC binding assay (UV-ligand exchange, beta2m ELISA, peptide exchange yield)
- STUDY CONDITIONS: MHC class I binding score; binding to HLA-A*02:01 ranged by peptide exchange yield (UV-ligand exchange, β2m ELISA)
MEASURED ENDPOINT: Peptide exchange

1) 6 (FLAELPGSLSL; listed as Homo sapiens) [compound 6] | ″+++″ (≥50 = +++)
2) 25 (SLADRLIGV; listed as Homo sapiens) [compound 25] | ″++++″ (≥75% = ++++)
3) 74 (YLMGFLHAV; listed as Homo sapiens) [compound 74] | ″+++″ (≥50 = +++)
4) 66 (GLDDGPDFL; listed as Homo sapiens) [compound 66] | ″++″ (≥20% = ++)
5) 126 (TLAKYLMEL; listed as Homo sapiens) [compound 126] | ″+++″ (≥50 = +++)
6) 157 (SLIERDLKL; listed as Homo sapiens) [compound 157] | ″+++″ (≥50 = +++)
7) 58 (AMADKMDMSL; listed as Homo sapiens) [compound 58] | ″++″ (≥20% = ++)
8) 143 (KLSDVWKEL; listed as Homo sapiens) [compound 143] | ″+++″ (≥50 = +++)
9) 128 (MLDDRAYLV; listed as Homo sapiens) [compound 128] | ″++″ (≥20% = ++)
10) 26 (GLASKENFSNVSL; listed as Homo sapiens) [compound 26] | ″++″ (≥20% = ++)
11) 62 (YLAPENGYL; listed as Homo sapiens) [compound 62] | ″++″ (≥20% = ++)
12) 169 (YLAHFIEGL; listed as Homo sapiens) [compound 169] | ″+++″ (≥50 = +++)
13) 120 (VLYEGVDEV; listed as Homo sapiens) [compound 120] | ″++″ (≥20% = ++)
14) 147 (TLTELRAFL; listed as Homo sapiens) [compound 147] | ″++++″ (≥75% = ++++)
15) 73 (YLFDIAVSM; listed as Homo sapiens) [compound 73] | ″+++″ (≥50 = +++)
16) 144 (LLNDRIWLA; listed as Homo sapiens) [compound 144] | ″+++″ (≥50 = +++)
17) 161 (FLKNELDNV; listed as Homo sapiens) [compound 161] | ″+++″ (≥50 = +++)
18) 76 (YLIGEKQHYL; listed as Homo sapiens) [compound 76] | ″+++″ (≥50 = +++)
19) 80 (QVDEVVDIMRV; listed as Homo sapiens) [compound 80] | ″++″ (≥20% = ++)
20) 134 (GVAGGSILKGV; listed as Homo sapiens) [compound 134] | ″++++″ (≥75% = ++++)
21) 124 (RVLPPSALQSV; listed as Homo sapiens) [compound 124] | ″+++″ (≥50 = +++)
22) 20 (YLKDGDVML; listed as Homo sapiens) [compound 20] | ″+++″ (≥50 = +++)
23) 145 (LLLEVVKQV; listed as Homo sapiens) [compound 145] | ″+++″ (≥50 = +++)
24) 153 (ILFSEDSTKLFV; listed as Homo sapiens) [compound 153] | ″+++″ (≥50 = +++)
25) 4 (RLAELTVDEFL; listed as Homo sapiens) [compound 4] | ″+++″ (≥50 = +++)
26) 184 (SLLDENNVSSYL; listed as Homo sapiens) [compound 184] | ″+++″ (≥50 = +++)
27) 54 (ALLNGEYLLAA; listed as Homo sapiens) [compound 54] | ″+++″ (≥50 = +++)
28) 186 (KMSEKILLL; listed as Homo sapiens) [compound 186] | ″+++″ (≥50 = +++)
29) 187 (GLHNVVYGI; listed as Homo sapiens) [compound 187] | ″+++″ (≥50 = +++)

====

- TARGET ENTITY: HLA-A*02:01 (Homo sapiens, UniProt P04439, D140Y/D185E/D98H/E176V/E277Q/G131W/G231S/I119V/I121R/I166T/I218V/L300P/L318F/N151K/N90K/P208A/P217A/Q86G/Q94H/R138H/R169H/T345S)
- EXPERIMENT: MHC binding assay (UV-ligand exchange, beta2m ELISA, peptide exchange yield)
- STUDY CONDITIONS: MHC class I binding score; binding to HLA-A*02:01 ranged by peptide exchange yield (UV-ligand exchange, β2m ELISA)
MEASURED ENDPOINT: Peptide exchange

1) 176 (RTLDKVLEV; listed as Homo sapiens) [compound 176] | ″++″ (≥20% = ++)
2) 40 (ALSNVIHKV; listed as Homo sapiens) [compound 40] | ″++″ (≥20% = ++)
3) 171 (RLQETEGMVAV; listed as Homo sapiens) [compound 171] | ″++″ (≥20% = ++)
4) 9 (ILDDHLSRV; listed as Homo sapiens) [compound 9] | ″++″ (≥20% = ++)
5) 95 (AILDAHIEV; listed as Homo sapiens) [compound 95] | ″++++″ (≥75% = ++++)
6) 129 (VLIDVLKEL; listed as Homo sapiens) [compound 129] | ″+++″ (≥50 = +++)
7) 166 (GLLEARGILGL; listed as Homo sapiens) [compound 166] | ″+++″ (≥50 = +++)
8) 32 (KLNTETFGV; listed as Homo sapiens) [compound 32] | ″++″ (≥20% = ++)
9) 136 (KLFDIFSQQV; listed as Homo sapiens) [compound 136] | ″+++″ (≥50 = +++)
10) 57 (NLLEKENYL; listed as Homo sapiens) [compound 57] | ″+++″ (≥50 = +++)
11) 48 (FLDASDPAL; listed as Homo sapiens) [compound 48] | ″++″ (≥20% = ++)
12) 88 (KLDIKVETV; listed as Homo sapiens) [compound 88] | ″++++″ (≥75% = ++++)
13) 16 (VLVDQSWVL; listed as Homo sapiens) [compound 16] | ″+++″ (≥50 = +++)
14) 59 (LLTDNVVKL; listed as Homo sapiens) [compound 59] | ″+++″ (≥50 = +++)
15) 110 (LLGELPRLLLL; listed as Homo sapiens) [compound 110] | ″+++″ (≥50 = +++)
16) 168 (GLIRFPLMTI; listed as Homo sapiens) [compound 168] | ″+++″ (≥50 = +++)
17) 37 (GLFAGLGGAGA; listed as Homo sapiens) [compound 37] | ″+++″ (≥50 = +++)
18) 46 (GLDDRYSLV; listed as Homo sapiens) [compound 46] | ″+++″ (≥50 = +++)
19) 31 (LLYGKYVSV; listed as Homo sapiens) [compound 31] | ″+++″ (≥50 = +++)
20) 69 (GMLNEAEGKAIKL; listed as Homo sapiens) [compound 69] | ″++″ (≥20% = ++)
21) 133 (RTFEKIEEV; listed as Homo sapiens) [compound 133] | ″++″ (≥20% = ++)
22) 178 (YLFREPATI; listed as Homo sapiens) [compound 178] | ″++″ (≥20% = ++)
23) 188 (FLVDGPRVQL; listed as Homo sapiens) [compound 188] | ″+++″ (≥50 = +++)
24) 123 (KTLERSYLL; listed as Homo sapiens) [compound 123] | ″++″ (≥20% = ++)
25) 101 (GLSEGHTFQV; listed as Homo sapiens) [compound 101] | ″+++″ (≥50 = +++)
26) 50 (TLMAEMHVV; listed as Homo sapiens) [compound 50] | ″+++″ (≥50 = +++)
27) 3 (RLIPDTLYSV; listed as Homo sapiens) [compound 3] | ″++++″ (≥75% = ++++)
28) 67 (SLNDLEKDVMLL; listed as Homo sapiens) [compound 67] | ″+++″ (≥50 = +++)
29) 104 (ILLTIKDDTIYL; listed as Homo sapiens) [compound 104] | ″+++″ (≥50 = +++)
30) 164 (KMLDEILLQL; listed as Homo sapiens) [compound 164] | ″++++″ (≥75% = ++++)
